Test system: A549-TP53BP1-CLTA
Assay: lowest phenotypically active concentration; higher = less potent
Conditions: treatment time: 24 h
Quantity measured: lowest phenotypically active concentration

[
  {
    "Molecule": "C/C=C(/C)C(=O)O[C@H]1C(C)=C2[C@H]([C@@H]1OC(=O)CCCCCCC)[C@@](C)(OC(C)=O)C[C@H](OC(=O)CCC)[C@@]1(O)[C@H]2OC(=O)[C@@]1(C)O",
    "Measured result": "≤ 0.3 µM"
  },
  {
    "Molecule": "C[C@H]1O[C@@H](O[C@H]2[C@@H](O)C[C@H](O[C@H]3[C@@H](O)C[C@H](O[C@H]4CC[C@@]5(C)[C@H](CC[C@@H]6[C@@H]5CC[C@]5(C)[C@@H](C7=CC(=O)OC7)[C@@H](O)C[C@]65O)C4)O[C@@H]3C)O[C@@H]2C)C[C@H](O)[C@@H]1O",
    "Measured result": "≤ 0.3 µM"
  }
]

Task: Quick one: lowest phenotypically active concentration of CC[C@@H](C(=O)[C@@H](C)[C@@H](O)[C@H](C)[C@@H]1O[C@@H]([C@@H](CC)C(=O)O)CC[C@@H]1C)[C@H]1O[C@]2(C=C[C@@H](O)[C@]3(CC[C@@](C)([C@H]4CC[C@](O)(CC)[C@H](C)O4)O3)O2)[C@H](C)C[C@@H]1C [Salinomycin Sodium] ?
Result: ≤ 0.3 µM

Task: Item: C[C@]12CC[C@H]3[C@@H](CC[C@]4(O)C[C@@H](O)CC[C@]34C=O)[C@@]1(O)CC[C@@H]2C1=CC(=O)OC1
Result: ≤ 0.3 µM

###

Test system: HepG2-TP53BP1-CLTA
Assay: lowest phenotypically active concentration; higher = less potent
Details: treatment time: 24 h
Quantity measured: lowest phenotypically active concentration (µM)
Provide only the numeric value, understood in µM.

[
  {
    "Molecule": "N#CC(C#N)=NNc1ccc(OC(F)(F)F)cc1",
    "Measured result": 9
  }
]

Task: What value of measured lowest phenotypically active concentration is listed for Cc1cc2c(C(C)C)c(O)c(O)c(C=O)c2c(O)c1-c1c(C)cc2c(C(C)C)c(O)c(O)c(C=O)c2c1O [gossypol] ?
Result: 9

Task: Also check CC[C@@H](C(=O)[C@@H](C)[C@@H](O)[C@H](C)[C@@H]1O[C@@H]([C@@H](CC)C(=O)O)CC[C@@H]1C)[C@H]1O[C@]2(C=C[C@@H](O)[C@]3(CC[C@@](C)([C@H]4CC[C@](O)(CC)[C@H](C)O4)O3)O2)[C@H](C)C[C@@H]1C [Salinomycin Sodium]
Result: 1

###

Tested on: WPMY1-GM130-SQSTM1
Assay: phenotypically active (imaging signature differs from DMSO and reproducible) at any of 0.3-9 uM (binary (1 = active, 0 = inactive)); higher = active
Conditions: treatment time: 24 h
Quantity measured: phenotypically active
Please reply with the value in numeric form only.

[
  {
    "Compound": "CC1=CC(=O)C2=C(C)C[C@H](O)[C@@H]3[C@H](OC(=O)[C@H]3C)[C@@H]12 [Austricine hydrate]",
    "Measured result": 0
  },
  {
    "Compound": "CC[C@H]1CN2CCc3cc(OC)c(OC)cc3[C@@H]2C[C@@H]1C[C@H]1NCCc2cc(OC)c(OC)cc21",
    "Measured result": 1
  },
  {
    "Compound": "C[C@@H]1CC[C@H]2[C@@H](C)C(=O)O[C@@H]3O[C@@]4(C)CC[C@@H]1[C@]32OO4",
    "Measured result": 1
  },
  {
    "Compound": "O=C1C[C@@H]2OCC=C3CN4CC[C@]56c7ccccc7N1[C@H]5[C@H]2[C@H]3C[C@H]46",
    "Measured result": 0
  },
  {
    "Compound": "C=C1[C@@H](C)[C@H]2[C@H](Cc3ccccc3)NC(=O)[C@]23OC(=O)C=C[C@H](O)CCC[C@@H](C)CC=C[C@H]3[C@@H]1O",
    "Measured result": 1
  }
]

Task: Recorded phenotypically active of C/C=C1/C[N+]2(C)CC[C@]34C(=C(C=O)[C@H]1C[C@@H]32)Nc1ccccc14 (some centres undefined) [Fluorocurarine chloride] , please.
Result: 0

Task: # iterate: CC[C@@H](C)C(=O)O[C@H]1[C@H](O)[C@H]2[C@@H](CN3C[C@@H](C)CC[C@H]3[C@@]2(C)O)C2C[C@]34O[C@]5(O)[C@@H](OC(=O)[C@](C)(O)CC)CC[C@@]3(C)[C@@H]5[C@@H](OC(C)=O)[C@@H](OC(C)=O)[C@H]4[C@@]21O (some centres undefined)
Result: 0

Task: Record: Cc1ccc(C[N+](C)(C)C)o1 [5-Methylfurmethiodide]
Result: 0

Task: Next compound up: CCCCCCCCCC(=O)O[C@H]1CC[C@H]2[C@@H]3CCC4=CC(=O)CC[C@@H]4[C@H]3CC[C@]12C [nandrolone-decanoate]
Result: 0

Task: And COc1ccc2c3c1O[C@H]1C(=O)CC[C@H]4[C@@H](C2)N(C)CC[C@]314 [hydrocodone] ?
Result: 0

Task: Please do the same for CCCCCC[C@H]1C(=O)O[C@H](C)[C@H](NC(=O)c2cccc(NC=O)c2O)C(=O)O[C@@H](C)[C@@H]1OC(=O)CC(C)C [antimycin a] as well.
Result: 1

Task: Queued: N#CC(C#N)=NNc1cccc(Cl)c1
Result: 1

Task: Another compound: CC1=C(O)C(=O)[C@@H]2O[C@@H]2C1=O [(-)-Terreic acid]
Result: 0

Task: Repeat with O=C1NC(=O)c2c1c1c3ccccc3n3c1c1c2c2ccccc2n1C1CCC3O1
Result: 1

Task: Similarly, C#CCN(C)[C@H](C)Cc1ccccc1 ?
Result: 0

Task: // repeat for COc1ccc(N(C(=O)Oc2c(C)cccc2C)c2ccnc(Nc3ccc(N4CCN(C)CC4)cc3)n2)c(OC)c1 and report
Result: 0

Task: How about NC(=S)N/N=C/c1coc2ccccc2c1=O ?
Result: 0

Task: Consider next the compound CC(C)[C@H]1C(=O)O[C@@H]2CCN3CC=C(COC(=O)[C@](C)(O)[C@@]1(C)O)[C@H]23 in the same way.
Result: 0

Task: Next record, please: C[C@@H]1O[C@H](C[N+](C)(C)C)C[C@H]1O [(+)-Muscarine iodide]
Result: 0
